tested.target: Mitogen-activated protein kinase 14 (Homo sapiens, UniProt Q16539)
Sequence (Q16539 whole entry): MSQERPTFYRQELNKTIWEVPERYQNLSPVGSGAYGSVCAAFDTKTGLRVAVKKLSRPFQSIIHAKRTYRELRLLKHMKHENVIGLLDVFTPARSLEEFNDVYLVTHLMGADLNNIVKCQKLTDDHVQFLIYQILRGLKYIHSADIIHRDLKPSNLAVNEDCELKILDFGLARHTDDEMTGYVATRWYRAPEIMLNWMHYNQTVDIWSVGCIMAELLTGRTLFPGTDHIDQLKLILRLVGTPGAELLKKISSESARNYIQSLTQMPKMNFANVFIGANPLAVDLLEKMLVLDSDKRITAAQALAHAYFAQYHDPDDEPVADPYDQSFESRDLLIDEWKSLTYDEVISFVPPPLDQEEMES
test: Inhibition of TNF alpha release in THP1 cells
Assay type: functional, cell-based, THP-1
pIC50: −log10 of the molar value.
Entry flag: Condition met if pIC50 reaches 9; Condition not met if it does not.

chemical.smiles | group
COC(=O)C(C)(C)N1CCC(c2cc(-c3ccc(F)cc3Cl)c3ccc(=O)n(-c4c(Cl)cccc4Cl)c3c2)CC1 | Condition not met
CC(C)(C)N1CCC(c2cc(-c3ccc(F)cc3Cl)c3ccc(=O)n(-c4c(F)cccc4F)c3c2)CC1 | Condition met

###

tested.target: Mitogen-activated protein kinase 14 (Homo sapiens, UniProt Q16539)
test: Inhibition of P38 alpha MAPK
pIC50: −log10 of the molar value.
A collection of compounds and their measured pIC50

compound | tested.target | pIC50
CN1C2CCC1CC(c1cc(-c3ccc(F)cc3Cl)c3ccc(=O)n(-c4c(Cl)cccc4Cl)c3c1)C2 (stereo unspecified) | Mitogen-activated protein kinase 14 (Homo sapiens, UniProt Q16539) | 9.21
CC(C)(C)N1CCC(c2cc3c(ccc(=O)n3-c3c(Cl)cccc3Cl)c(-c3ccc(F)cc3Cl)n2)CC1 | Mitogen-activated protein kinase 14 (Homo sapiens, UniProt Q16539) | 9.42
CC(C)N1C2CCC1CC(c1cc(-c3ccc(F)cc3Cl)c3ccc(=O)n(-c4c(Cl)cccc4Cl)c3c1)C2 (stereo unspecified) | Mitogen-activated protein kinase 14 (Homo sapiens, UniProt Q16539) | 9.29
CC(C)(C)N1CCC(Oc2cc(-c3ccccc3Cl)c3ccc(=O)n(-c4c(Cl)cccc4Cl)c3c2)CC1 | Mitogen-activated protein kinase 14 (Homo sapiens, UniProt Q16539) | 8.80
C[C@H](C(=O)O)N1CCC(c2cc(-c3ccc(F)cc3Cl)c3ccc(=O)n(-c4c(Cl)cccc4Cl)c3c2)CC1 | Mitogen-activated protein kinase 14 (Homo sapiens, UniProt Q16539) | 8.49
CC(C)(C)N1CCC(c2cc3c(ccc(=O)n3-c3c(Cl)cccc3Cl)c(-c3ccc(F)cc3F)n2)CC1 | Mitogen-activated protein kinase 14 (Homo sapiens, UniProt Q16539) | 9.29
CC(C)(C)N1CCC(Oc2cc(-c3ccc(F)cc3Cl)c3ccc(=O)n(-c4c(Cl)cccc4Cl)c3c2)CC1 | Mitogen-activated protein kinase 14 (Homo sapiens, UniProt Q16539) | 8.15
COC(=O)C(C)(C)N1CCC(c2cc(-c3ccc(F)cc3Cl)c3ccc(=O)n(-c4c(Cl)cccc4Cl)c3c2)CC1 | Mitogen-activated protein kinase 14 (Homo sapiens, UniProt Q16539) | 8.17
CC(C)(C)N1CCC(c2cc(-c3ccc(F)cc3Cl)c3ccc(=O)n(-c4c(F)cccc4F)c3c2)CC1 | Mitogen-activated protein kinase 14 (Homo sapiens, UniProt Q16539) | 9.52
CC(C)(C)N1CCC(c2cc3c(ccc(=O)n3-c3c(Cl)cccc3Cl)c(-c3ccccc3Cl)n2)CC1 | Mitogen-activated protein kinase 14 (Homo sapiens, UniProt Q16539) | 8.85
CC(C)(C)N1CCC(Oc2cc(-c3ccc(F)cc3F)c3ccc(=O)n(-c4c(F)cccc4F)c3c2)CC1 | Mitogen-activated protein kinase 14 (Homo sapiens, UniProt Q16539) | 7.98
CC(C)(C)N1CC=C(c2cc(-c3ccc(F)cc3Cl)c3ccc(=O)n(-c4c(Cl)cccc4Cl)c3c2)CC1 | Mitogen-activated protein kinase 14 (Homo sapiens, UniProt Q16539) | 8.94
C[C@@H](C(=O)O)N1CCC(c2cc(-c3ccc(F)cc3Cl)c3ccc(=O)n(-c4c(Cl)cccc4Cl)c3c2)CC1 | Mitogen-activated protein kinase 14 (Homo sapiens, UniProt Q16539) | 8.89
COC(=O)C(C)N1CCC(c2cc(-c3ccc(F)cc3Cl)c3ccc(=O)n(-c4c(Cl)cccc4Cl)c3c2)CC1 (stereo unspecified) | Mitogen-activated protein kinase 14 (Homo sapiens, UniProt Q16539) | 8.09
CC(C)(C)N1CCC(c2cc(-c3ccc(F)cc3F)c3ccc(=O)n(-c4c(Cl)cccc4Cl)c3c2)CC1 | Mitogen-activated protein kinase 14 (Homo sapiens, UniProt Q16539) | 9.85
CC(C)(C)N1CCC(Oc2cc(-c3ccc(F)cc3F)c3ccc(=O)n(-c4c(Cl)cccc4Cl)c3c2)CC1 | Mitogen-activated protein kinase 14 (Homo sapiens, UniProt Q16539) | 8.73
O=c1ccc2c(-c3ccc(F)cc3Cl)cc(C3CC4CCC(C3)N4)cc2n1-c1c(Cl)cccc1Cl (stereo unspecified) | Mitogen-activated protein kinase 14 (Homo sapiens, UniProt Q16539) | 9.35
CC(C)(C)N1CCC(c2cc(-c3ccccc3Cl)c3ccc(=O)n(-c4c(Cl)cccc4Cl)c3c2)CC1 | Mitogen-activated protein kinase 14 (Homo sapiens, UniProt Q16539) | 10.00
CC(C)(C)N1CCC(c2cc(-c3ccc(F)cc3Cl)c3ccc(=O)n(-c4c(Cl)cccc4Cl)c3c2)CC1 | Mitogen-activated protein kinase 14 (Homo sapiens, UniProt Q16539) | 9.51
CC1(C)C=C(c2cc(-c3ccc(F)cc3Cl)c3ccc(=O)n(-c4c(Cl)cccc4Cl)c3c2)CC(C)(C)N1 | Mitogen-activated protein kinase 14 (Homo sapiens, UniProt Q16539) | 9.59
CC(C)(C(=O)O)N1CCC(c2cc(-c3ccc(F)cc3Cl)c3ccc(=O)n(-c4c(Cl)cccc4Cl)c3c2)CC1 | Mitogen-activated protein kinase 14 (Homo sapiens, UniProt Q16539) | 9.08
